Measured IC50 by item
tested on: HeLa; experiment: Cytotoxicity against human HeLa cells after 48 hrs by MTT assay; format: functional, cell-based

Observe how each entry below is paired with its result.
In [3]: df
Out[3]:
                              smiles_string  system_tested   result
0  CC(C)C[C@@H](C(=O)Nc1ccc(S(=O)(=O)c2ccc(N)cc2)cc1)N1C(=O)c2cccc3c(NCCN(C)C)ccc(c23)C1=O           HeLa  > 50 µM
1  CC(C)C[C@@H](C(=O)Nc1ccc(S(N)(=O)=O)cc1)N1C(=O)c2cccc3c(NCCSc4ccccc4)ccc(c23)C1=O           HeLa  > 50 µM
2  CC(C)C[C@@H](C(=O)Nc1ccc(S(=O)(=O)c2ccc(N)cc2)cc1)N1C(=O)c2cccc3c(NCCSc4ccccc4)ccc(c23)C1=O           HeLa  > 50 µM
3  COc1cc(-c2ccc(NC(=O)[C@H](CC(C)C)N3C(=O)c4cccc5c(NCCSc6ccccc6)ccc(c45)C3=O)c(OC)c2)ccc1N           HeLa  > 50 µM

In: Looking for the measured IC50 of "COc1cc(-c2ccc(NC(=O)[C@H](CC(C)C)N3C(=O)c4cccc5c(NCCN(C)C)ccc(c45)C3=O)c(OC)c2)ccc1N" , can you help?
Out: 6.74 µM

In: // query: "CC(C)C[C@@H](C(=O)Nc1ccc(S(N)(=O)=O)cc1)N1C(=O)c2cccc3c(NCCN(C)C)ccc(c23)C1=O"
Out: 8.09 µM
